system: 565232-114-T-J1-PDC complex spheroid viability; assay: Anticancer human tumor 565232-114-T-J1-PDC patient-derived bladder carcinoma cell line growth inhibition [CLK]; conditions: curve of first compound; second compound 0.0316 µM;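 note: spheroids exposed to compounds for 7 days before readout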
pIC50: −log10 of the molar value.
PROPERTY LABEL: pIC50

[[record]]
compound = "C=C(F)C(=O)N1CCN(c2nc(OCC3CCCN3C)nc3c2CCN(c2cccc4cccc(Cl)c24)C3)CC1CC#N (stereo unspecified) + CNC(=O)c1ccc(Nc2nc(OC3CCCC3)c3c(-c4ccc5nc(C)oc5c4)c[nH]c3n2)c(OC)c1"
target_under_test = "565232-114-T-J1-PDC complex spheroid viability"
qual = "="
observed = 5.23

[[record]]
compound = "CCc1c2c(nc3ccc(O)cc13)-c1cc3c(c(=O)n1C2)COC(=O)[C@]3(O)CC + CN1CCN(c2cc(C(=O)Nc3cc4cc(-c5cnn(C)c5)ccc4cn3)ccn2)CC1"
target_under_test = "565232-114-T-J1-PDC complex spheroid viability"
qual = "="
observed = 7.44

[[record]]
compound = "CC1COCCN1c1cc(C2(S(C)(=N)=O)CC2)nc(-c2ccnc3[nH]ccc23)n1 (stereo unspecified) + CNC(=O)c1ccc(Nc2nc(OC3CCCC3)c3c(-c4ccc5nc(C)oc5c4)c[nH]c3n2)c(OC)c1"
target_under_test = "565232-114-T-J1-PDC complex spheroid viability"
qual = "="
observed = 5.20

[[record]]
compound = "CC(C)CC(NC(=O)C(Cc1ccccc1)NC(=O)c1cnccn1)B(O)O (stereo unspecified) + CN1CCN(c2cc(C(=O)Nc3cc4cc(-c5cnn(C)c5)ccc4cn3)ccn2)CC1"
target_under_test = "565232-114-T-J1-PDC complex spheroid viability"
qual = "="
observed = 8.24

[[record]]
compound = "CCN1CCN(Cc2ccc(Nc3ncc(F)c(-c4cc(F)c5nc(C)n(C(C)C)c5c4)n3)nc2)CC1 + CN1CCN(c2cc(C(=O)Nc3cc4cc(-c5cnn(C)c5)ccc4cn3)ccn2)CC1"
target_under_test = "565232-114-T-J1-PDC complex spheroid viability"
qual = "<"
observed = 6.00

[[record]]
compound = "O=C(c1cc(Cc2n[nH]c(=O)c3ccccc23)ccc1F)N1CCN(C(=O)C2CC2)CC1 + CN1CCN(c2cc(C(=O)Nc3cc4cc(-c5cnn(C)c5)ccc4cn3)ccn2)CC1"
target_under_test = "565232-114-T-J1-PDC complex spheroid viability"
qual = "<"
observed = 5.00

[[record]]
compound = "CCN1CCN(Cc2ccc(Nc3ncc(F)c(-c4cc(F)c5nc(C)n(C(C)C)c5c4)n3)nc2)CC1 + CNC(=O)c1ccc(Nc2nc(OC3CCCC3)c3c(-c4ccc5nc(C)oc5c4)c[nH]c3n2)c(OC)c1"
target_under_test = "565232-114-T-J1-PDC complex spheroid viability"
qual = "<"
observed = 6.00

[[record]]
compound = "CCCS(=O)(=O)Nc1ccc(F)c(C(=O)c2c[nH]c3ncc(-c4ccc(Cl)cc4)cc23)c1F + CNC(=O)c1ccc(Nc2nc(OC3CCCC3)c3c(-c4ccc5nc(C)oc5c4)c[nH]c3n2)c(OC)c1"
target_under_test = "565232-114-T-J1-PDC complex spheroid viability"
qual = "="
observed = 5.22

[[record]]
compound = "O=c1[nH]cc(F)c(=O)[nH]1 + CN1CCN(c2cc(C(=O)Nc3cc4cc(-c5cnn(C)c5)ccc4cn3)ccn2)CC1"
target_under_test = "565232-114-T-J1-PDC complex spheroid viability"
qual = "<"
observed = 5.00

[[record]]
compound = "COc1cccc2c1C(=O)c1c(O)c3c(c(O)c1C2=O)CC(O)(C(=O)CO)CC3OC1CC(N)C(O)C(C)O1 (stereo unspecified) + CNC(=O)c1ccc(Nc2nc(OC3CCCC3)c3c(-c4ccc5nc(C)oc5c4)c[nH]c3n2)c(OC)c1"
target_under_test = "565232-114-T-J1-PDC complex spheroid viability"
qual = "="
observed = 6.94

[[record]]
compound = "COc1ccc([C@@H](O)c2cc(-c3ncnc4cc(N5CCOCC5)ccc34)c(F)cc2Cl)nn1 + CN1CCN(c2cc(C(=O)Nc3cc4cc(-c5cnn(C)c5)ccc4cn3)ccn2)CC1"
target_under_test = "565232-114-T-J1-PDC complex spheroid viability"
qual = "<"
observed = 5.00

